target: UniProt:P05129; experiment: Evaluated against recombinant human Protein kinase C gamma
measurement-name: IC50 (µM)
Give bare numbers, in µM.

compound: COC(=O)c1cccc(O)c1C(=O)c1c(O)cc(C(=O)OC2CCCC2Cc2ccc(O)cc2)cc1O (stereo unspecified)
measurement-name: IC50
unit-tag: µM
value-reported: 1.7
//
compound: CN(C)C(COC(=O)c1cc(O)c(C(=O)c2c(O)cccc2C(=O)O)c(O)c1)Cc1ccc(O)cc1 (stereo unspecified)
measurement-name: IC50
unit-tag: µM
value-reported: 4.2
//
compound: O=C(OCCCCc1ccc(O)cc1)c1cc(O)c(C(=O)c2c(O)cccc2C(=O)O)c(O)c1
measurement-name: IC50
unit-tag: µM
value-reported: 1.4
//
compound: O=C(OCC(Cc1ccc(O)cc1)NS(=O)(=O)c1ccc2ccccc2c1)c1cc(O)c(C(=O)c2c(O)cccc2C(=O)O)c(O)c1 (stereo unspecified)
measurement-name: IC50
unit-tag: µM
value-reported: 2.7
//
compound: COC(=O)c1cccc(O)c1C(=O)c1c(O)cc(C(=O)OC2CNCC2Cc2ccc(O)cc2)cc1O (stereo unspecified)
measurement-name: IC50
unit-tag: µM
value-reported: 0.38
//
compound: O=C(NC1CCCC1OC(=O)c1cc(O)c(C(=O)c2c(O)cccc2C(=O)O)c(O)c1)c1ccc(O)cc1 (stereo unspecified)
measurement-name: IC50
unit-tag: µM
value-reported: 0.01
//
compound: COC(=O)c1cccc(O)c1C(=O)c1c(O)cc(C(=O)OC[C@@H](Cc2ccc(O)cc2)NS(=O)(=O)c2ccccc2)cc1O
measurement-name: IC50
unit-tag: µM
value-reported: 4.5
//
compound: O=C(OC1CCCC1Oc1ccc(O)cc1)c1cc(O)c(C(=O)c2c(O)cccc2C(=O)O)c(O)c1 (stereo unspecified)
measurement-name: IC50
unit-tag: µM
value-reported: 0.25

Give measured IC50 for every item shown.
1. O=C(OCC(Cc1ccc(O)cc1)NS(=O)(=O)c1ccccc1)c1cc(O)c(C(=O)c2c(O)cccc2C(=O)O)c(O)c1 (stereo unspecified)
2. O=C(NCCOC(=O)c1cc(O)c(C(=O)c2c(O)cccc2C(=O)O)c(O)c1)c1ccc(O)cc1
3. O=C(OCC(NS(=O)(=O)c1ccccc1)c1ccc(O)cc1)c1cc(O)c(C(=O)c2c(O)cccc2C(=O)O)c(O)c1 (stereo unspecified)

[0.22, 6.6, 4.8]

Give measured IC50 for every item shown.
1. O=C(OC[C@H](Cc1ccc(O)cc1)NS(=O)(=O)c1ccccc1)c1cc(O)c(C(=O)c2c(O)cccc2C(=O)O)c(O)c1
2. O=C(OC[C@@H](Cc1ccc(O)cc1)NS(=O)(=O)c1ccccc1)c1cc(O)c(C(=O)c2c(O)cccc2C(=O)O)c(O)c1
3. CS(=O)(=O)NC(COC(=O)c1cc(O)c(C(=O)c2c(O)cccc2C(=O)O)c(O)c1)Cc1ccc(O)cc1 (stereo unspecified)
4. O=C(NC1CNCCCC1OC(=O)c1cc(O)c(C(=O)c2c(O)cccc2C(=O)O)c(O)c1)c1ccc(O)cc1 (racemic)
5. O=C(NC(COC(=O)c1cc(O)c(C(=O)c2c(O)cccc2C(=O)O)c(O)c1)Cc1ccc(O)cc1)c1ccc(O)cc1 (stereo unspecified)

2.6
0.47
5
0.03
2.9
